# EC50 listing for each entry below
tested on: Herpes simplex type 1 (HSV-1) strain E-377; assay: CPE-inhibition assay, HSV-1 strain E-377 in Vero cells; details: Human alphaherpesvirus 1, Vero, read-out: ID50 (minimum drug concentration that inhibited the CPE by 50%), HSV-1 (E-377), Vero
Counter-ions that a name gives are not always drawn.
Lab note: write values as number then unit, every time.

These solved cases illustrate the format of a correct answer.
Nc1ncc2ncn(C3CC(CO)C3CO)c2n1 (stereo not shown)    271 µg/mL
NCC1CC(n2cnc3c(Cl)ncnc32)C1 (stereo not shown) [Example 21, hydrochloride]    88 µg/mL
Nc1nc2c(nc(Br)n2C2CC(CO)C2CO)c(=O)[nH]1 (stereo not shown)    100 µg/mL

Task: With Herpes simplex type 1 (HSV-1) strain E-377 as the test system, provide measured EC50 for this compound: OCC1CC(n2cc(Br)c3c(Cl)ncnc32)C1CO (stereo not shown) [Example 67C]
Output: 11.1 µg/mL
